Source of measurements: paper PMC6130872

Target: HLA-DRβ1*1101 (Homo sapiens, UniProt P01903+P01911, A100R/A169T/A87E/I96F/K41T/L162R/M171V/P40S/Q125H/Q178H/Q39Y/Q99D/R42S/S66Y/T262R/V115G/W38E)
Construct: endogenous in cells; host or cells: IHW09043 homozygous lymphoblastoid B-cell line (IHWG)
Sequence (P01903 26-254, other chains not shown): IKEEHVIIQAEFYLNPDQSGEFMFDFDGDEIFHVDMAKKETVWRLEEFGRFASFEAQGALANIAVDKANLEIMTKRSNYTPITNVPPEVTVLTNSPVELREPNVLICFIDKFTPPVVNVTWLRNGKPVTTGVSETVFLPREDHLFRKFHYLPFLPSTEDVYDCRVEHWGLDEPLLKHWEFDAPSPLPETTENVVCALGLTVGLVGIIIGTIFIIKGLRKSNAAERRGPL
Experiment: biochemical
Assay type: binding
Conditions: DRβ1*1101; 50% displacement of biotinylated HA; 4.2 to 250 μM serial dilutions; second order exponential decay fit
No end group written: not given here.
value.kind: IC50 (µM)
Number only, in µM; omit the unit.

ordered.residues	reported.measurement
EECFLQGFNLSGKKE [Peptide 39113]	38.5
LGIIEVLIPSLPKKI [Peptide 39117]	134
KRLVAHFEFATTPDD [Peptide 39122]	170

Ask: Give its IC50 value. Item: YNKIFYARVPQRIYQ [Peptide 39114]
Result: 8.28
